- Tested on: ICS
- assayText: qHTS profiling for inhibitors of Plasmodium falciparum proliferation (AID 504749); further: nearly all actives have a fitted effect of over 60% in size
- condition: P. falciparum in erythrocytes, SYBR Green DNA, 72 h; series mostly up to 28.7 µM
- Protocol: NIH National Institute of Allergy and Infectious Diseases [NIAID] NIH Chemical Genomics Center [NCGC] […] Because mature erythrocytes lack DNA, only Plasmodium-derived DNA is detected. NCGC Assay Protocol Summary: The SYBR Green viability assay was adapted from a method described previously (Plouffe et al., 2008). […] The following morning, fluorescence intensity at 485(14) nm excitation and 535(25) nm emission wavelengths was measured on an EnVision (Perkin Elmer) plate reader. […]
Records with an inconclusive call do not appear. The source made the active and inactive calls. The call rests on the fitted dose curve; in most records, active means well fitted inhibition curve with a large enough effect; inconclusive means small, poorly fitted or top-dose-only effect; inactive means flat fitted curve, though single readings scatter.
Tick one outcome: active, inactive

Example cases with answers are listed next.
compound | assignedClass
CC(C)NCC(O)COc1ccc(CCOCC2CC2)cc1 (stereo not drawn) | active
CN(C)C(=N)N=C(N)N | inactive
O=C(c1ccc(OCCN2CCCCC2)cc1)c1c(-c2ccc(O)cc2)sc2cc(O)ccc12 | active

Hey, what did the test say about CN(C)CCCN1c2ccccc2CCc2ccc(Cl)cc21 ?
active

Called result for CC(C)(Oc1ccc(C2CC2(Cl)Cl)cc1)C(=O)O (stereo not drawn)
inactive

Could you please tell me the result logged for CC(C)(C)C(=O)Oc1ccc(S(=O)(=O)Nc2ccccc2C(=O)NCC(=O)O)cc1 in this assay?
inactive

Please share the test call associated with CS(=O)(=O)Nc1ccc([N+](=O)[O-])cc1Oc1ccccc1 .
inactive

State the result this test recorded for CCOC(=O)C(C)(C)Oc1ccc(Cl)cc1 .
inactive

Which outcome was assigned to Cc1ccc(C(=O)Nc2ccc(S(=O)(=O)O)c3cc(S(=O)(=O)O)cc(S(=O)(=O)O)c23)cc1NC(=O)c1cccc(NC(=O)Nc2cccc(C(=O)Nc3cc(C(=O)Nc4ccc(S(=O)(=O)O)c5cc(S(=O)(=O)O)cc(S(=O)(=O)O)c45)ccc3C)c2)c1 in this test?
inactive

GET /call?item= O=C(Nc1ccc([N+](=O)[O-])cc1Cl)c1cc(Cl)ccc1O returns the recorded outcome of this test.
active

GET /call?item= NCCCCCC(=O)O returns the recorded outcome of this test.
inactive

For this compound, state the assay outcome: Cn1c(=O)c2[nH]cnc2n(C)c1=O
inactive

What call does the record list for CC(=O)OCC(CCn1cnc2cnc(N)nc21)COC(C)=O ?
inactive

Would you mind telling me which call this test gave COc1cc2c(c(OC)c1OC)-c1ccc(OC)c(=O)cc1[C@@H](NC(C)=O)CC2 ?
inactive

Hello, I am checking results. What call was entered for CC(C)C(=O)Nc1ccc([N+](=O)[O-])c(C(F)(F)F)c1 ?
inactive

Recorded test outcome, item CN(CCOc1ccc(NS(C)(=O)=O)cc1)CCc1ccc(NS(C)(=O)=O)cc1
inactive

Hello, the source for this data is PubChem BioAssay (NCATS), in case you need it.
